biological target: Calmodulin-1 (Homo sapiens) (UniProt P0DP23); test: calcium-bound CALM1 binders on microarrays, profiling panel, artefact control for SMM control-protein annotation, biochemical, small-molecule microarray, Cy5-labelled CALM1, plus calcium (AID 1112); details: Cy5-CALM1 binding fluorescence, higher = more signal;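 note: score merges spot fluorescence with signal to noise from triplicate slides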
# key: entry, value: composite z-score
Response field accepts a number only; no unit should be typed.

COMPOUND	ASSAYED_TARGET	METRIC_NAME	VALUE_REPORTED
CC(C)C[C@@H]1NC(=O)[C@H](CC(C)C)NC(=O)[C@@]23C(=O)N[C@@H](Cc4ccccc4)C2[C@H](C)[C@@]2(C)O[C@H]2C3/C=C/CC/C=C/CNC1=O (some centres undefined)	Calmodulin-1 (Homo sapiens) (UniProt P0DP23)	composite z-score	-0.747
CC(C)(C)OC(=O)CC[C@]1(C(=O)NCCN2CCOCC2)N=C(c2ccc(OCCCO)cc2)O[C@H]1c1ccccc1CN=[N+]=[N-]	Calmodulin-1 (Homo sapiens) (UniProt P0DP23)	composite z-score	0.608
C=C[C@H](OC)[C@@H](OC(=O)Nc1ccc(SC)cc1)c1ccc(O)c(F)c1	Calmodulin-1 (Homo sapiens) (UniProt P0DP23)	composite z-score	-0.0093

As a next step, examine the compound that follows.
IN: Hi! What's the reported composite z-score for C=CC[C@@]12N=C(c3ccc(OCCCO)cc3)O[C@@H]1c1ccccc1CN(Cc1ccccc1)C2=O on Calmodulin-1 (Homo sapiens) (UniProt P0DP23)?
OUT: 0.429
